FYI, the data here is from patent US20110288136A1.

For each entry below, report its CC50 at 48 h value.
Test: MTS cytotoxicity assay (48 h)
Assay type: cell-based
Conditions: African green monkey; MTS, Vero cells, 48 h

Ask | Give the measured CC50 at 48 h of CC(C)N(C(=S)/N=C1\SC(C)S(=O)(=O)N1C)C(C)C (stereo not shown) .
Reply | 90 µM

Ask | Please answer likewise for `O=S1(=O)CS/C(=N\C(=S)N(c2ccccc2)c2ccccc2)N1c1ccccc1`
Reply | > 70 µM

Ask | `CC(C)N(C(=S)/N=C1\SCS(=O)(=O)N1Cc1ccccc1)C(C)C` ?
Reply | > 80 µM

Ask | Now give it for `O=S1(=O)CS/C(=N\C(=S)N(Cc2ccccc2)Cc2ccccc2)N1c1ccccc1` too.
Reply | 65 µM
